Entry source: patent US20170088520A1

Give inhibition at 5 µM for every item shown.
target: DUB activity in cells (NCI-H929, Z138, MM.1S, A375) (Homo sapiens, UniProt Q93008); construct: endogenous in cells; host or cells: NCI-H929, Z138, MM.1S, A375; experiment: HA-Ubiquitin-Vinylsulfone (HA-Ub-VS) cell labeling assay; format: cell-based; details: compound tested at 5 μM; HA-Ub-VS labeling of USP9x in cells
Sequence (Q93008 whole entry): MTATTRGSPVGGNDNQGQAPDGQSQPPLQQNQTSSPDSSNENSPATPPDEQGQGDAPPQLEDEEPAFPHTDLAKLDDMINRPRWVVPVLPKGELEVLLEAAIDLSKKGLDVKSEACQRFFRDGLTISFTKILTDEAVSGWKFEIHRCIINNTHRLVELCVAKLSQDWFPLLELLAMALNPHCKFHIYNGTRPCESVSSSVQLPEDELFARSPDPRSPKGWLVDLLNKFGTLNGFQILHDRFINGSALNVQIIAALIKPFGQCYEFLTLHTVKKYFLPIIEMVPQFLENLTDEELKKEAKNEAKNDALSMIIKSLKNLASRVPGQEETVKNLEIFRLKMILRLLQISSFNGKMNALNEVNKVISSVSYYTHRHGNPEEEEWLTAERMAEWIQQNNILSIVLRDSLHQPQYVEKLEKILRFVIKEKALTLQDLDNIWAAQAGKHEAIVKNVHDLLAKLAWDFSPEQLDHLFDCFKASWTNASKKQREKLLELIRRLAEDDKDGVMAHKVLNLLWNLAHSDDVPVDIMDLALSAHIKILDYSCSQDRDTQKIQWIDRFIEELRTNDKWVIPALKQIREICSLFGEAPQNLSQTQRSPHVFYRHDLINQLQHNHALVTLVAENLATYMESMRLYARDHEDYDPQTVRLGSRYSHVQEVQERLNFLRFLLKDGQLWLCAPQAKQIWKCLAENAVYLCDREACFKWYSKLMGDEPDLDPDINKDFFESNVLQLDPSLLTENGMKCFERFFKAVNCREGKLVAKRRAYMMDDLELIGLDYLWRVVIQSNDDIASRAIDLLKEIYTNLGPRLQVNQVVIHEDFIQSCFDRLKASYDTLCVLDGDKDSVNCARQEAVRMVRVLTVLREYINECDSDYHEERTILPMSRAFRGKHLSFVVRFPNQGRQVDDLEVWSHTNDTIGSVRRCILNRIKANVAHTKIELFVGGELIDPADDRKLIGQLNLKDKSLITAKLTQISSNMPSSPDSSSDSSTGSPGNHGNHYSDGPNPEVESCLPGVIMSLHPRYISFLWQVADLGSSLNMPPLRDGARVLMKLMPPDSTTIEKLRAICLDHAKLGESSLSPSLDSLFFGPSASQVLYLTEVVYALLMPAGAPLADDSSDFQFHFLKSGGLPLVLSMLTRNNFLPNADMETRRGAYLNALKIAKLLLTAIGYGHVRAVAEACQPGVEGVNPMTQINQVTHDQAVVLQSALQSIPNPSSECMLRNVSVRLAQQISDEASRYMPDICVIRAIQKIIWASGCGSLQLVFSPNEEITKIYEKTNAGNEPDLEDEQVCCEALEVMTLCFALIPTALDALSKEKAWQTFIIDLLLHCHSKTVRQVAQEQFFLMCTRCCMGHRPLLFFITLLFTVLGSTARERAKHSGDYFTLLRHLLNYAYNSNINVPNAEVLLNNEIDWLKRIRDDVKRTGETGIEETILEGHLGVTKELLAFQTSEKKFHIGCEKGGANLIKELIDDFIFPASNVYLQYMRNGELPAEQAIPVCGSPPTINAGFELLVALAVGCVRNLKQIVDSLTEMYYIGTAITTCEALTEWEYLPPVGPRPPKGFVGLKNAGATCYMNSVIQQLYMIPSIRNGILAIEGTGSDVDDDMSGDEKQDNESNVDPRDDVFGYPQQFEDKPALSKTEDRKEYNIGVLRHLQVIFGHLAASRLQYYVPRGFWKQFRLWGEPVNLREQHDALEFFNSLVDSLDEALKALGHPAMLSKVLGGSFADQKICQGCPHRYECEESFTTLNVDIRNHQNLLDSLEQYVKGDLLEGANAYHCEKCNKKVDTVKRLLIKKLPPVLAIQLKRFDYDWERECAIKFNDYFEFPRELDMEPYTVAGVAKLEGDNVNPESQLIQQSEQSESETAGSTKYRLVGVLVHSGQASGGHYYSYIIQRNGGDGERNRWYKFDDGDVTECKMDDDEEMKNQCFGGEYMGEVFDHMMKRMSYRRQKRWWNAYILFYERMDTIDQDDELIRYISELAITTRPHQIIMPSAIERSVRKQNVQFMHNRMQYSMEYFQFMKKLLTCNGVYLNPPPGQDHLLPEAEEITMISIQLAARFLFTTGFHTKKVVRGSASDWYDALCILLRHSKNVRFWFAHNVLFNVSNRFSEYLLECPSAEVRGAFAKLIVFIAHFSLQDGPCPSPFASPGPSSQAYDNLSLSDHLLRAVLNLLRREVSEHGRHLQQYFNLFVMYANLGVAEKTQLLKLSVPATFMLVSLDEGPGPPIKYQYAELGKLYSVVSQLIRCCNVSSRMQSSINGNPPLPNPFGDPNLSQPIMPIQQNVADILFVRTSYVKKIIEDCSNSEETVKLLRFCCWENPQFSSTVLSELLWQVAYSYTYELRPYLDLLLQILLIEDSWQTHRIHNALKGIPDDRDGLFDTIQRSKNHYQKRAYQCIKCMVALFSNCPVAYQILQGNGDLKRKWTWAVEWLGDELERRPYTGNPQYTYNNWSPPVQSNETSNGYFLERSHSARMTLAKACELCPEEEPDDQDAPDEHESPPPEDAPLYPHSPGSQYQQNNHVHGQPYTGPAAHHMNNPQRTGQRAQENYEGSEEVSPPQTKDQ

Using the record for N#C/C(=C\c1cccc(N2CCCC2)n1)C(=O)NC1(c2ccccc2)CCCC1 [Compound 83] , report its inhibition at 5 µM.
< 25%

Dear colleague, I am looking for the recorded inhibition at 5 µM of the following compound: N#C/C(=C\c1cccc(Br)n1)C(=O)NC1(c2ccc(-c3ccc4[nH]ncc4c3)cc2)CCCC1 [Compound 95]
< 25%

Field request: inhibition at 5 µM | item: N#C/C(=C\c1cccc(Br)n1)C(=O)NC1(c2cccc(CO)c2)CCCC1 [Compound 81]
50 to 75%

Reported inhibition at 5 µM for N#C/C(=C\c1cccc(Br)n1)C(=O)NC1(c2cccc(Br)c2)CCCC1 [Compound 58] : what is it?
≥ 75%

So what's the measured inhibition at 5 µM for this one? N#C/C(=C\c1cccc(-c2ccc3[nH]ncc3c2)n1)C(=O)NC1(c2ccccc2)CCCC1 [Compound 70]
50 to 75%

Entry N#C/C(=C\c1cccc(-c2cccc(C(=O)O)c2F)n1)C(=O)NC1(c2ccccc2)CCCC1 [Compound 89] has what inhibition at 5 µM?
< 25%

inhibition at 5 µM lookup needed for N#C/C(=C\c1cccc(C#CCn2cccn2)n1)C(=O)NC1(c2ccncc2)CCCC1 [Compound 3-4] , thanks.
< 25%

I'd like to know its inhibition at 5 µM. The compound in question is N#C/C(=C\c1cccc(-c2cccc(C(=O)O)c2)n1)C(=O)NC1(c2ccccc2)CCCC1 [Compound 71]
< 25%

* * *

Kindly supply the reported inhibition at 5 µM values for the records listed here.
target: DUB activity in cells (NCI-H929, Z138, MM.1S, A375) (Homo sapiens); construct: endogenous in cells; host or cells: NCI-H929, Z138, MM.1S, A375; assay: HA-Ubiquitin-Vinylsulfone (HA-Ub-VS) cell labeling assay; assay type: cell-based; details: compound tested at 5 μM; HA-Ub-VS labeling of USP9x in cells

Quick one: inhibition at 5 µM for N#C/C(=C\c1ncccc1Br)C(=O)NC1(c2ccccc2)CCCC1 ?
50 to 75%

Reported inhibition at 5 µM for N#C/C(=C\c1ccc(Cl)c(Cl)c1)C(=O)NC1(c2ccccc2)CCCC1 : what is it?
25 to 50%

Value lookup for inhibition at 5 µM; key = N#C/C(=C\c1ncc(Br)cc1Br)C(=O)NC1(c2ccc(C#CCN3CCOCC3)cc2)CCCC1
≥ 75%

Could you share which inhibition at 5 µM value was measured for N#C/C(=C\c1cccc(Br)n1)C(=O)NC1(c2ccccc2)CCC1 ?
< 25%

For the compound shown here, N#C/C(=C\c1cccc(Br)n1)C(=O)NC1(c2ccccc2)CC1 , give the reported inhibition at 5 µM.
< 25%

# input compound: COC(=O)c1ccc(C2(NC(=O)/C(C#N)=C/c3cccc(Br)n3)CCCC2)cc1 ; wanted: its inhibition at 5 µM
50 to 75%

Suppose we examine the compound N#C/C(=C\c1nc(Cl)ccc1Br)C(=O)NC1(c2ccccc2)CCCC1 ; what inhibition at 5 µM value has been reported?
50 to 75%

What value of inhibition at 5 µM has been recorded for this entry: N#C/C(=C\c1cccc(-c2ccc(OCC(=O)O)cc2)n1)C(=O)NC1(c2ccccc2)CCCC1
< 25%
